The values you see were collected from paper PMC12305662.

TARGET_SYSTEM: CYP143 (Mycobacterium tuberculosis)
Sequence (P9WPL3 whole entry, the tested form may be a part): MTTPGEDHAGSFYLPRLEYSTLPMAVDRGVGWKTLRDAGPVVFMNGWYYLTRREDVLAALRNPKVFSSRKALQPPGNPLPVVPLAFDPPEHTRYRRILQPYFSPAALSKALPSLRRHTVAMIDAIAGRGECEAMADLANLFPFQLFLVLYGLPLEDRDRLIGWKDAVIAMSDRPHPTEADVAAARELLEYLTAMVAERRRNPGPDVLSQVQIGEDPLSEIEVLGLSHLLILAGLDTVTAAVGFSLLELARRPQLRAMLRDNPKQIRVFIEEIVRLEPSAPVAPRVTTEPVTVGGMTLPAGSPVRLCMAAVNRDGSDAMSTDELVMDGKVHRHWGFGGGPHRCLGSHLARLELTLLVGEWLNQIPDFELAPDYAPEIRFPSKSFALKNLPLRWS
MEASUREMENT_CONDITIONS: fragment 1 mM, P450 4-6 µM; relative to DMSO (416 nm)
MEASURE: Δλmax (nm) CYP143, fragment screen
# output: bare number, implied unit nm

Recorded result, Cn1nc(C(=O)O)cc1-c1ccccc1 , Δλmax (nm) CYP143, fragment screen: 0.5

Recorded result, COc1ccc(C(C)=O)cn1 , Δλmax (nm) CYP143, fragment screen: 0.5

Recorded result, NC1=NN(c2ccccc2)C(=O)C1 , Δλmax (nm) CYP143, fragment screen: 0

Recorded result, O=S(=O)(O)c1ccccn1 , Δλmax (nm) CYP143, fragment screen: 1

Recorded result, Nc1ccc(Br)cn1 , Δλmax (nm) CYP143, fragment screen: 0.5

Recorded result, Cc1nn(-c2ccccc2)nc1C(=O)O , Δλmax (nm) CYP143, fragment screen: 0

Recorded result, Clc1cccnc1Cl , Δλmax (nm) CYP143, fragment screen: 0

Recorded result, O=C(O)c1ccnn1-c1ccccc1 , Δλmax (nm) CYP143, fragment screen: 0.5

Recorded result, Cn1nc(-c2ccccc2)cc1N , Δλmax (nm) CYP143, fragment screen: -0.5

Recorded result, CNCc1cccc(-c2ccccc2)c1 , Δλmax (nm) CYP143, fragment screen: 4

Recorded result, Clc1cncc(Cl)c1 , Δλmax (nm) CYP143, fragment screen: 0

Recorded result, N#Cc1ccccn1 , Δλmax (nm) CYP143, fragment screen: 0.5

Recorded result, COC(=O)c1cc2ccccc2cn1 , Δλmax (nm) CYP143, fragment screen: 1

Recorded result, Nc1cc(Cl)nc(Cl)c1 , Δλmax (nm) CYP143, fragment screen: 0

Recorded result, Oc1cccnc1O , Δλmax (nm) CYP143, fragment screen: 0.5

Recorded result, CCc1nc(C)c[nH]1 , Δλmax (nm) CYP143, fragment screen: 0

Recorded result, c1ccc(-c2ccn[nH]2)nc1 , Δλmax (nm) CYP143, fragment screen: 0

Recorded result, OCc1ccc(-c2ccncc2)cc1 , Δλmax (nm) CYP143, fragment screen: 1

Recorded result, c1ccc(N2CCOCC2)nc1 , Δλmax (nm) CYP143, fragment screen: 1

Recorded result, COc1ncccc1N , Δλmax (nm) CYP143, fragment screen: 2.5

Recorded result, O=C(O)c1ccnnc1 , Δλmax (nm) CYP143, fragment screen: 0.5

Recorded result, N#Cc1ncccc1F , Δλmax (nm) CYP143, fragment screen: 0

Recorded result, Cc1[nH]ncc1-c1ccccc1 , Δλmax (nm) CYP143, fragment screen: 0

Recorded result, Nc1cccc(Cn2cncn2)c1 , Δλmax (nm) CYP143, fragment screen: 1

Recorded result, Nc1cc(-c2ccc(Cl)cc2)n[nH]1 , Δλmax (nm) CYP143, fragment screen: 0

Recorded result, Brc1c[nH]cn1 , Δλmax (nm) CYP143, fragment screen: 0.5

Recorded result, CC(C)c1cc(C(=O)O)[nH]n1 , Δλmax (nm) CYP143, fragment screen: -0.5

* * *

Give pIC50 for every item shown.
TARGET_SYSTEM: CYP3A4 (Homo sapiens, UniProt P08684)
Construct: from tissue; host or cells: human liver microsomes
Sequence (P08684 whole entry): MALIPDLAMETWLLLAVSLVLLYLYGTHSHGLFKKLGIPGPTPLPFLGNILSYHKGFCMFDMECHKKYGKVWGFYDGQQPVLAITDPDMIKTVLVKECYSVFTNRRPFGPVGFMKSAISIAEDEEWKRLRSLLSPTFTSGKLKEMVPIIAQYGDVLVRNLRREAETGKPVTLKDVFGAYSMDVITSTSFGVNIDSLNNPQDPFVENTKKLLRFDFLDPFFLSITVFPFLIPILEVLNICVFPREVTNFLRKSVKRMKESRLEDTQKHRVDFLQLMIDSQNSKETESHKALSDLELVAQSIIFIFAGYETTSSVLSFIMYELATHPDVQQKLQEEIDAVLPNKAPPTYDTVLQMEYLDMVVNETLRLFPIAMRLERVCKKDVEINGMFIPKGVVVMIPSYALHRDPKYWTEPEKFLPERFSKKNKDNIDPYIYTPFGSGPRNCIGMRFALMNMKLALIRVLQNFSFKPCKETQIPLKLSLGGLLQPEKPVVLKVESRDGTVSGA
METHOD: Inhibition of human liver microsomal P450s
Type: in vitro ADME
MEASUREMENT_CONDITIONS: CYP3A4 IC50 (testosterone), substrate testosterone (second value of cell)
Just the number, please; pIC50 means minus log10 of the concentration in mol/L.

Recorded result, O=C(Nc1ccc(Cc2ccncc2)cc1)[C@H](Cc1c[nH]c2ccccc12)NCc1ccccc1 [5d] , pIC50: 5.83

Recorded result, O=S(=O)(Nc1ccc(Cc2ccncc2)cc1)c1ccc(OC(F)(F)F)cc1 [5k] , pIC50: 5.90

Recorded result, COc1ccc(CNc2ccc(Cc3ccncc3)cc2)cc1 [5m] , pIC50: 5.74
